Assay read-out pIC50 on Type-1 angiotensin II receptor A (Rattus norvegicus); records merged from the literature.
pIC50: −log10 of the molar value.
Is pIC50 at least 7? Then rule met. If not, rule not met.

{"columns": ["compound", "qualitative.label"],
 "data": [
  ["CCCCc1nc2cccnc2n1Cc1ccc2nc(-c3ccccc3C(=O)O)ccc2c1", "rule met"],
  ["CCCc1nc2c(C)ccnc2n1Cc1ccc2nn(-c3ccccc3C(=O)O)c(Br)c2c1", "rule met"],
  ["CCCCc1ncc(C=C2C(=O)Nc3ccccc32)n1Cc1ccc(C(=O)O)cc1", "rule not met"],
  ["CCCc1nc2c(C)cc(-c3cn(C)cn3)cc2n1Cc1ccc(-c2ccccc2C(=O)O)cc1", "rule met"],
  ["CCCCc1ncc(CC2C(=O)NC(=O)N2CCCC)n1Cc1ccc(-c2ccccc2-c2nnn[nH]2)cc1 (stereo not shown)", "rule met"],
  ["CCCCc1ncc(/C=C2\\C(=O)NC(=O)N2C)n1Cc1ccc(-c2ccccc2-c2nnn[nH]2)cc1", "rule met"],
  ["CCCc1ncc(/C=C2\\C(=O)N(CC(=O)OC)c3cccc(C)c32)n1Cc1ccc(C(=O)OC)cc1", "rule not met"],
  ["CCc1nc2c(C)cc(-c3cn4c(n3)CCCC4)cc2n1Cc1ccc(-c2ccccc2NC(=O)C(F)(F)F)cc1", "rule met"],
  ["CCCCc1nc2ccccc2n1Cc1ccc(C(=O)Nc2cccc3[nH]ccc23)cc1", "rule not met"],
  ["CCc1nc2c(C)cc(-c3cn4c(n3)CCCC4)cc2n1Cc1ccc(-c2ccccc2S(=O)(=O)NC(=O)c2ccccc2)cc1", "rule met"],
  ["CCCCc1nn2cccc(C(=O)O)c2c1Cc1ccc(-c2ccccc2-c2nnn[nH]2)cc1", "rule met"]
]}

* * *

# literature pull: Type-1 angiotensin II receptor A (Rattus norvegicus, UniProt P25095) pIC50
pIC50: −log10 of the molar value.
pIC50 below 8 gives Not met; pIC50 at or above it gives Met.

{"columns": ["query.smiles", "qualitative.label"],
 "data": [
  ["CCSc1nnc(CO)n1Cc1ccc(NC(=O)[C@H](CC(=O)O)NC(=O)OCc2ccccc2)cc1", "Not met"],
  ["CCCc1nc2c(C)cc(-c3cn(C(C)C)cn3)cc2n1Cc1ccc(-c2ccccc2-c2nn[nH]n2)cc1", "Met"],
  ["CCCc1nc2c(C)cc(-c3nc4ccccc4n3C)cc2n1Cc1ccc2c(c1)nc(-c1ccccc1)n2Cc1nnn[nH]1", "Met"],
  ["CCCCc1ncc(/C=C2\\C(=O)NC(=O)N2CCCC)n1Cc1ccc(-c2ccccc2-c2nn[nH]n2)cc1", "Met"],
  ["CCCCc1ncc(/C=C2\\C(=O)NC(=O)N2C)n1Cc1ccc(C(=O)O)cc1", "Not met"],
  ["CCCCc1nc(SC)c(C(=O)O)n1Cc1ccc(-c2ccccc2C(=O)O)cc1", "Not met"],
  ["CCCCc1ncc(/C=C2/C(=O)N(CCCC)C(=O)N2CC(=O)c2cccs2)n1Cc1ccc(C(=O)OC)cc1", "Not met"],
  ["CCCCN1C(=O)N(C)C(=O)/C1=C\\c1cnc(CCC)n1Cc1ccc(C(=O)OC)cc1", "Not met"],
  ["CCCc1nc(-n2cccc2)c(/C=C2/C(=O)N(C)c3ccccc32)n1Cc1ccc(C(=O)OC)cc1", "Not met"],
  ["CCCCc1nc(Cl)c(CO)n1Cc1ccc(NC(=O)[C@H](Cc2ccccc2)NS(=O)(=O)N2CCOCC2)cc1", "Not met"],
  ["CCCCc1ncc(CO)n1Cc1ccc(NC(=O)[C@H](Cc2ccc(O)cc2)NC(=O)OC(C)(C)C)cc1", "Not met"],
  ["CCCCc1ncc(C=C2C(=O)N(O)c3ccccc32)n1Cc1ccc(C(=O)OC)cc1", "Not met"],
  ["CCCCc1ncc(/C=C2/C(=O)NC(=O)N2Cc2cccs2)n1Cc1ccc(C(=O)OC)cc1", "Met"],
  ["CCCCc1ncc(/C=C2/C(=O)N(CCCC)C(=O)N2Cc2cccs2)n1Cc1ccc(C(=O)O)cc1", "Met"],
  ["CCCCc1ncc(/C=C2\\NC(=O)N(COC)C2=O)n1Cc1ccc(C(=O)OC)cc1", "Not met"],
  ["CCCCc1nc(Cl)c(CO)n1Cc1ccc2nc(-c3ccccc3C(=O)O)ccc2c1", "Met"],
  ["CCCc1nc(-n2cccc2)c(/C=C2/C(=O)Nc3ccccc32)n1Cc1ccc(C(=O)O)cc1", "Not met"],
  ["CCCCc1nc2c(n1Cc1ccc(-c3ccccc3S(=O)(=O)NC(=O)OCC)cc1)C(=O)CCS2", "Met"],
  ["CCc1nc2c(C)cc(C)nc2n1Cc1ccc2nc(-c3ccccc3-c3nnn[nH]3)ccc2c1", "Met"],
  ["CCCCc1nc(S(C)(=O)=O)c(C(=O)O)n1Cc1ccc(-c2ccccc2-c2nn[nH]n2)cc1", "Met"],
  ["CCCCc1ncc(C=C2C(=O)N(CC(=O)O)c3ccccc32)n1Cc1ccc(C(=O)O)cc1", "Not met"],
  ["CCCCc1nc2cc(C)c(C)cc2n1Cc1ccc(C(=O)O)cc1", "Not met"],
  ["CCCCc1ncc(/C=C2\\NC(=O)N(CCCC)C2=O)n1Cc1ccc(C2(C(=O)OC)CCCC2)cc1", "Not met"],
  ["CCCCc1ncc(/C=C2/C(=O)NC(=O)N2Cc2ccccc2)n1Cc1ccc(C(=O)O)cc1", "Met"],
  ["CCCCc1ncc(/C=C2/C(=O)NC(=O)N2CCCC)n1Cc1ccc(-c2ccccc2-c2nn[nH]n2)cc1", "Met"]
]}
